Let's look at some compounds and their measured pIC50.
Target: EGFR WT (Homo sapiens (Human), UniProt P00533)
Sequence (P00533 25-1210): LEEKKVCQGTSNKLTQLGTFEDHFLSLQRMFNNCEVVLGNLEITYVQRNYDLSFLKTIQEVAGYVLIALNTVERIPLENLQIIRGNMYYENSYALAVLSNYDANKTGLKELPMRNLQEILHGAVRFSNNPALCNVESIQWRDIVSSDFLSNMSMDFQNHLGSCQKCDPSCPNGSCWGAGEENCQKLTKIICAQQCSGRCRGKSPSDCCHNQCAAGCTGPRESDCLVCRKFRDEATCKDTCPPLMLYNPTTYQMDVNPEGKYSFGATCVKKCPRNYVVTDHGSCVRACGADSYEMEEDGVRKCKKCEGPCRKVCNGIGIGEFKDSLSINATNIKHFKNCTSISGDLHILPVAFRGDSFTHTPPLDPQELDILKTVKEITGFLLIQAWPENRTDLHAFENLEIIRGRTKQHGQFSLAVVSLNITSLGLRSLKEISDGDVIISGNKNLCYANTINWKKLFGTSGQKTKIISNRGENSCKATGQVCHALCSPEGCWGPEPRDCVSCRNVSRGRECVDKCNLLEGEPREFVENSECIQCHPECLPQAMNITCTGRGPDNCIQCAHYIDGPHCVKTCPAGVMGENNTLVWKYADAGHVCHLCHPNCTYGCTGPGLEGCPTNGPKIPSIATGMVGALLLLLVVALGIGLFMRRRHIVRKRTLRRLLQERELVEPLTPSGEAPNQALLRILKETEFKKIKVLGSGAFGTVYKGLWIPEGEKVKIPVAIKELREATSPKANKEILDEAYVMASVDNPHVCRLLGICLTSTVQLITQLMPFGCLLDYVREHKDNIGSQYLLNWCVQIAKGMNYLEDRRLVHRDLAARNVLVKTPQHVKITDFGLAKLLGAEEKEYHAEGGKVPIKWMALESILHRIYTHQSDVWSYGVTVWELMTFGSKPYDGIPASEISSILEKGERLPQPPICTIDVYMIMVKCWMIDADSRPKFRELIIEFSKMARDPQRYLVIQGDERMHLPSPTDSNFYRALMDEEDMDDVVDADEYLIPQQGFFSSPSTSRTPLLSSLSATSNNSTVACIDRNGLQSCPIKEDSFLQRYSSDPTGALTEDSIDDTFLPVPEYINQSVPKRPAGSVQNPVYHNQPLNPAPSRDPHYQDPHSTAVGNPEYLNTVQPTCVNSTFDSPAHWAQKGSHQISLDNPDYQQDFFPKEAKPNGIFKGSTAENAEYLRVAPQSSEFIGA
pIC50: −log10 of the molar value.

Past entries and their recorded results:
compound | pIC50
C=CC(=O)N1CCC=C(c2ccc3ncnc(Nc4ccc(Oc5ccc6c(c5)nnn6C)c(C)c4)c3n2)C1 | > 7.30
C=CC(=O)N1CCN(c2ccc3ncnc(Nc4ccc(Oc5ccc6c(c5)nnn6C)c(C)c4)c3n2)CC1(C)C | 7.00 to 7.30
C=CC(=O)N1CCN(c2ccc3ncnc(Nc4ccc(Oc5cc(F)c6c(c5)nnn6C)c(C)c4F)c3n2)C[C@@H]1C1CC1 | 6.30 to 7.00
C=CC(=O)N1CCN(c2ncc3ncnc(Nc4ccc(Oc5ccc6c(c5)nnn6C)c(C)c4)c3n2)CC1(C)C | 6.30 to 7.00
C=CC(=O)N1CCN(c2ccc3ncnc(Nc4cc(C)c(Oc5ccc6c(c5)ncn6C(F)F)cc4OC)c3n2)CC1 | 6.30 to 7.00

**Query** Would you kindly share the measured pIC50 for C=CC(=O)N1CCN(c2ncc3ncnc(Nc4ccc(Oc5ccc6c(c5)nnn6C)c(C)c4F)c3n2)C2CC21 (centres unmarked) ?
**Result** > 7.30

**Query** How about this compound: `C=CC(=O)N[C@]1(C)CCCN(c2ncc3ncnc(Nc4ccc(Oc5ccc6c(c5)nnn6C)c(C)c4)c3n2)C1`
**Result** > 7.30

**Query** Now consider `C=CC(=O)N1CCN(c2ncc3ncnc(Nc4ccc(Oc5cc(F)c6c(c5)ncn6C)c(C)c4F)c3n2)CC[C@@H]1C` and answer again.
**Result** > 7.30

###

Molecular target: EGFR WT (Homo sapiens (Human))
Collected IC50 values appear next to each entry.

**Query** Can you share its IC50? I mean this compound: `C=C(F)C(=O)N1CCN(c2ccc3ncnc(Nc4ccc(Oc5ccc6c(c5)nnn6C)c(C)c4)c3n2)CC1`
**Result** 0.5 to 1 µM

**Query** Quick one: `C=CC(=O)N1CCN(c2ncc3ncnc(Nc4cc(C)c(Oc5ccc6c(c5)ncn6C(F)F)cc4OC)c3n2)C[C@H]1C`
**Result** 0.5 to 1 µM

**Query** // query: `C=CC(=O)N1C[C@@H](C)N(c2ncc3ncnc(Nc4ccc(Oc5ccc6c(c5)nnn6C)c(C)c4)c3n2)C[C@@H]1C`
**Result** ≥ 1 µM

###

Quick list: pIC50 per entry.
Molecular target: EGFR WT (Homo sapiens (Human), UniProt P00533)
pIC50: −log10 of the molar value.

compound | pIC50
C=CC(=O)N[C@H]1CCCN(c2ccc3ncnc(Nc4ccc(Oc5ccc6c(c5)nnn6C)c(C)c4F)c3n2)[C@@H]1C (single isomer, unassigned) [Compound 348] | 7.00 to 7.30
C=CC(=O)N1CC(Oc2ncc3ncnc(Nc4ccc(Oc5ccc6c(c5)ncn6C)c(C)c4)c3n2)C1 [Compound 383] | > 7.30
C=CC(=O)N1CCCN(c2ncc3ncnc(Nc4ccc(Oc5cc(F)c6c(c5)ncn6C)c(C)c4F)c3n2)CC1 [Compound 112] | > 7.30
C=CC(=O)N1C2CCC1CN(c1ncc3ncnc(Nc4ccc(Oc5cnc6c(c5)ncn6C)c(C)c4)c3n1)C2 [Compound 134] | 6.30 to 7.00
C=CC(=O)N1CCN(c2ncc3ncnc(Nc4ccc(Oc5cc(F)c6c(c5)ncn6C)c(C)c4F)c3n2)C[C@H]1CC [Compound 160] | > 7.30

Continue with the compound presented below.
**Query** Which pIC50 reading was recorded for the compound C=CC(=O)N1CCN(c2ncc3ncnc(Nc4ccc(Oc5ccc6c(c5)nnn6C)c(C)c4)c3c2OC)CC1 [Compound 105] ?
**Result** 6.00 to 6.30

###

A collection of compounds and their measured IC50
Target: ErbB2 V777L (Homo sapiens (Human), UniProt P04626, V777L)
Sequence (P04626 23-1255 V777L): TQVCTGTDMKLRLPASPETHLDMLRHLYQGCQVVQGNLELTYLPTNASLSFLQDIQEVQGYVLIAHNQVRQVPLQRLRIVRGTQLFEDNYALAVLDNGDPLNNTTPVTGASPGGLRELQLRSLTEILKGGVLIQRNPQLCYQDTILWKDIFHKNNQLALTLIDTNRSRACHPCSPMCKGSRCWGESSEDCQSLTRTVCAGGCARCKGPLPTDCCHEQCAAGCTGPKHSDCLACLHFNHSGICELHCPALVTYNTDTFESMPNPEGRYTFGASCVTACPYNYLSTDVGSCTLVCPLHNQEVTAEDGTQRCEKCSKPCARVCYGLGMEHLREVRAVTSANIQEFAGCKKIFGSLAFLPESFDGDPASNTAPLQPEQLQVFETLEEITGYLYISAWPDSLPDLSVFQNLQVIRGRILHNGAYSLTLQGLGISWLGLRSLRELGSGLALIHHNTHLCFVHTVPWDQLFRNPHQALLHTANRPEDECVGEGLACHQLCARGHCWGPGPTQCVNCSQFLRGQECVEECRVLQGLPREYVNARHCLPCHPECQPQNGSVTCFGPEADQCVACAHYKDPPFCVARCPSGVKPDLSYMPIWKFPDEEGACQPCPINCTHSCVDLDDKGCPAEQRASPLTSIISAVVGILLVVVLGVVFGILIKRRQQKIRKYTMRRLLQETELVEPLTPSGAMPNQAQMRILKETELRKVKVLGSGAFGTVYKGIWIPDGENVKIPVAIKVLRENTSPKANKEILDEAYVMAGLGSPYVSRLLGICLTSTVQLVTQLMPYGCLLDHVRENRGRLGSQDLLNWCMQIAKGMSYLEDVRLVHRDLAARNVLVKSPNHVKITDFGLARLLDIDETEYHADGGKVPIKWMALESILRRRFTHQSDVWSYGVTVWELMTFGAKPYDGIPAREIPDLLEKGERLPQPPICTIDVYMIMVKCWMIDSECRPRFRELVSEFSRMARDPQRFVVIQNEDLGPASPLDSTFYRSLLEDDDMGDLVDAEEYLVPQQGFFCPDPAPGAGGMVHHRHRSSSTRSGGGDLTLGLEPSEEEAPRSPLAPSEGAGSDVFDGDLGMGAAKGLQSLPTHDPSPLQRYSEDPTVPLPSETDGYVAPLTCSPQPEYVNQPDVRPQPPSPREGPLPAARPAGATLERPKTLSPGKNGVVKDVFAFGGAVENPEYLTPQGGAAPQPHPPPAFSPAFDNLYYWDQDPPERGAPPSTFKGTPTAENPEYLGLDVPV
Test: ErbB enzyme assay (CisBio HTRF-KinEASE-TK), ErbB2 V777L
Type: biochemical
Structures can show the parent of a compound that is named as a salt.

Before answering, review these 6 worked examples.
compound | reported
C=CC(=O)N1C[C@@H]2CCN(c3ccc4ncnc(Nc5ccc(Oc6ccc7c(c6)nnn7C)c(C)c5)c4n3)[C@@H]2C1 (stereo in doubt) | 50 to 100 nM
C=CC(=O)N1CCN(c2ccc3ncnc(Nc4ccc(Oc5cc6ncn(C)c6nc5C)c(C)c4)c3n2)C[C@H]1C | 50 to 100 nM
C=CC(=O)N1C[C@@H](C)N(c2ncc3ncnc(Nc4ccc(Oc5ccc6c(c5)nnn6C)c(C)c4)c3n2)C[C@@H]1C | 500 to 1000 nM
C/C=C/C(=O)N1CCN(c2ncc3ncnc(Nc4ccc(Oc5ccc6c(c5)nnn6C)c(C)c4)c3n2)CC1 | 100 to 500 nM
C=CC(=O)N1CCN(c2ncc3ncnc(Nc4cc(C)c(Oc5ccc6c(c5)nnn6C)cc4OC)c3n2)CC1 [Compound 12, trifluoroacetate] | 100 to 500 nM
C=CC(=O)N1C2CCCC1CC(c1ccc3ncnc(Nc4cc(C)c(Oc5ccc6c(c5)nnn6C)cc4OC)c3n1)C2 (centres unmarked) | 50 to 100 nM

**Query** Dear colleague, I am looking for the recorded IC50 of the following compound: `C=CC(=O)N1CCN(c2ncc3ncnc(Nc4ccc(Oc5ccc6c(c5)nnn6C)c(C)c4)c3n2)C[C@H]1CC`
**Result** 100 to 500 nM

**Query** Another compound to check: `C=C1CCN(C2CCN(c3ncc4ncnc(Nc5ccc(Oc6ccn7ncnc7c6)c(C)c5)c4n3)CC2)C1=O`
**Result** 100 to 500 nM

**Query** Also check `CC#CC(=O)N1CCN(c2ncc3ncnc(Nc4ccc(Oc5ccc6c(c5)nnn6C)c(C)c4)c3n2)CC1`
**Result** 100 to 500 nM

**Query** Ok, now `C=CC(=O)N1CCN(c2ncc3ncnc(Nc4ccc(Oc5ccc6c(c5)nnn6C)c(OC)c4F)c3n2)CC1`
**Result** 100 to 500 nM

**Query** One more compound: `C=CC(=O)N1CCN(c2ncc3ncnc(Nc4ccc(Oc5ccc6c(c5)nnn6C)c(C)c4C)c3n2)CC1`
**Result** 100 to 500 nM

**Query** Let us now turn to `Cc1c(Oc2ccc3c(c2)nnn3C)ccc(Nc2ncnc3cnc(N4CCN(C(=O)/C=C/CN5CC(F)C5)CC4)nc23)c1F`
**Result** 100 to 500 nM

###

Molecular target: EGFR WT (Homo sapiens (Human), UniProt P00533)
Where a name gives a salt, the structure may show the parent alone.
Reported values of IC50 for individual entries

Here is how some compounds turned out for IC50.
compound | quantity | reported
C=CC(=O)N1CCC(c2ccc3ncnc(Nc4ccc(Oc5ccc6c(c5)nnn6C)c(C)c4)c3n2)CC1 [Compound 108] | IC50 | 100 to 500 nM
C=CC(=O)N1CCN(c2ccc3ncnc(Nc4ccc(Oc5cc(F)c6c(c5)nnn6C)c(C)c4)c3n2)C[C@@H]1C1CC1 [Compound 290] | IC50 | 500 to 1000 nM
C=CC(=O)N1CCN(c2ncc3ncnc(Nc4cc(C)c(Oc5cc(F)c6c(c5)ncn6C)cc4OC)c3n2)C[C@H]1C [Compound 41] | IC50 | 100 to 500 nM

**Query** Could you share what IC50 was measured for C=CC(=O)N1CCN(c2ncc3ncnc(Nc4c(F)cc(Oc5ccc6c(c5)nnn6C)c(F)c4F)c3n2)CC1 [Compound 19] , tested on EGFR WT (Homo sapiens (Human), UniProt P00533)?
**Result** 100 to 500 nM

**Query** Next entry: C=CC(=O)N1C[C@@H](N(C)c2ccc3ncnc(Nc4ccc(Oc5ccc6c(c5)nnn6C)c(C)c4F)c3n2)CC[C@@H]1C [Compound 267]
**Result** ≥ 1000 nM

**Query** Next compound: C=CC(=O)N1CCCC(c2ccc3ncnc(Nc4ccc(Oc5ccc6c(c5)nnn6C)c(C)c4)c3n2)C1 (stereo not drawn) [Compound 398]
**Result** 100 to 500 nM

**Query** Can you handle C=CC(=O)N[C@H]1CCCN(c2ncc3ncnc(Nc4ccc(Oc5ccc6c(c5)nnn6C)c(C)c4F)c3n2)CC1 [Compound 168] next?
**Result** 500 to 1000 nM

**Query** Follow-up entry: C=CC(=O)N1C2CC1CN(c1ncc3ncnc(Nc4ccc(Oc5ccc6c(c5)nnn6C)c(C)c4)c3n1)C2 [Compound 60]
**Result** 100 to 500 nM

**Query** // repeat for C=CC(=O)N1CCN(c2ccc3ncnc(Nc4c(OC)cc(Oc5cc(F)c6c(c5)ncn6C)c(C)c4F)c3n2)C[C@H]1C [Compound 257] and report
**Result** < 50 nM

**Query** Please do the same for C=CC(=O)N1CC2CC1CN2c1ncc2ncnc(Nc3ccc(Oc4ccc5c(c4)nnn5C)c(C)c3)c2n1 (stereo not drawn) [Compound 61] as well.
**Result** < 50 nM

**Query** Please answer likewise for C=C(F)C(=O)N1C2CCC1CN(c1ncc3ncnc(Nc4ccc(Oc5ccc6c(c5)nnn6C)c(C)c4)c3n1)C2 [Compound 51, trifluoroacetate]
**Result** ≥ 1000 nM

**Query** Input C=C(F)C(=O)N1CCN(c2ncc3ncnc(Nc4ccc(Oc5ccc6c(c5)nnn6C)c(C)c4)c3n2)C[C@H]1COC [Compound 211]
**Result** ≥ 1000 nM
